From: paper PMC5261807

Listed here: items and their measured binding score.
- system: T1, Bdf1 bromodomain 2 (GST-tagged, WT) (Saccharomyces cerevisiae (strain ATCC …, UniProt P35817))
- T1 chain: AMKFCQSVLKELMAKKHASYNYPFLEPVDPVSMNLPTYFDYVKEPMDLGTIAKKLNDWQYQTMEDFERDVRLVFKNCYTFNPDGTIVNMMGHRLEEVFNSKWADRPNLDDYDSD
- method.summary: histone peptide array probed with recombinant GST-bromodomain, signal normalised to myc peptide control
Non-standard residues stand in square brackets, D forms with d. No end group written: not given here. Arg(Me2a) = CN(C)C(=N)NCCC[C@H](N)C(=O)O; Lys(Me3) = C[N+](C)(C)CCCC[C@H](N)C(=O)O; Arg(Me2s) = CN=C(NC)NCCC[C@H](N)C(=O)O; Lys(Me2) = CN(C)CCCC[C@H](N)C(=O)O; Lys(Me) = CNCCCC[C@H](N)C(=O)O
Respond using a number only.

binder	binding score
ARTKQTARKSTGGKAPRKQ (A Rme2s T Kme1 Q T A Rme2s Kac S T G G K A P R K Q)	0.0269
ARTKQTARKSTGGKAPRKQ (A Rme2a T Kac Q T A Rme2s Kme1 S T G G K A P R K Q)	0

Enquiry: Please report the recorded binding score for ARTKQTARKSTGGKAPRKQ (A Rme2a T Kme1 Q T A Rme2a Kme2 S T G G K A P R K Q) .
Return: 0.000885

Enquiry: Moving on to the next binder: A[Arg(Me2a)]TK(Ac)QTA[Arg(Me2s)][Lys(Me3)]STGGKAPRKQ
Return: 0.00758

Enquiry: Moving on to the next binder: PRKQLATKAA[Arg(Me2s)][Lys(Me3)]SAPATGG
Return: 0

Enquiry: Moving on to the next binder: ARTKQTARKSTGGKAPRKQ (A R T Kme1 Q T A Rme2a Kme1 S T G G K A P R K Q)
Return: 0

Enquiry: Moving on to the next binder: A[Arg(Me2a)]TK(Ac)QTARK(Ac)STGGKAPRKQ
Return: 0.0627

Enquiry: Moving on to the next binder: SGRGKGGKGLGKGGAKRHR (S G R G Kac G G K G L G K G G A K R H R) [H4 1-19]
Return: 0.0404

Enquiry: Moving on to the next binder: ARTKQTARKSTGGKAPRKQ (A Rme2s T Kme3 Q T A R K S T G G K A P R K Q)
Return: 0

Enquiry: Moving on to the next binder: ARTKQTARKSTGGKAPRKQ (A R T K Q T A R Kme1 S pT G G K A P R K Q)
Return: 0.00344

Enquiry: Moving on to the next binder: PRKQLATKAA[Arg(Me2s)]KSAPATGG
Return: 0

Enquiry: Moving on to the next binder: ARTKQTARKSTGGKAPRKQ (A Rme2a T Kme1 Q T A Rme2a Kme1 S T G G K A P R K Q)
Return: 0

Enquiry: Moving on to the next binder: ARTKQTARKSTGGKAPRKQ (A Rme2a T Kac Q T A Rme2a K S T G G K A P R K Q)
Return: 0.00718

Enquiry: Moving on to the next binder: A[Arg(Me2a)]T[Lys(Me)]QTA[Arg(Me2s)][Lys(Me2)]STGGKAPRKQ
Return: 0

Enquiry: Moving on to the next binder: ARTK(Ac)QTARKSTGGKAPRKQ
Return: 0.00679
